# targetEntity: T1, human interleukin 12 (human, UniProt P29459 23-219; P29460 23-328)
# T1 construct: heterodimer of p35 and p40 linked by a disulfide bridge; also called hIL-12; IL-12
# T1 sequence (looked up) 1: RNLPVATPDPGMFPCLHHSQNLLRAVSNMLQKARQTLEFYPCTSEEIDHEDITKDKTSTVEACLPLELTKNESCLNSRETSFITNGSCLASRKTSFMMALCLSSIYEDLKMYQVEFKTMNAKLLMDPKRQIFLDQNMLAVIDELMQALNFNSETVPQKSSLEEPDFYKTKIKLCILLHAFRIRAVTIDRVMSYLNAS
# T1 sequence (looked up) 2: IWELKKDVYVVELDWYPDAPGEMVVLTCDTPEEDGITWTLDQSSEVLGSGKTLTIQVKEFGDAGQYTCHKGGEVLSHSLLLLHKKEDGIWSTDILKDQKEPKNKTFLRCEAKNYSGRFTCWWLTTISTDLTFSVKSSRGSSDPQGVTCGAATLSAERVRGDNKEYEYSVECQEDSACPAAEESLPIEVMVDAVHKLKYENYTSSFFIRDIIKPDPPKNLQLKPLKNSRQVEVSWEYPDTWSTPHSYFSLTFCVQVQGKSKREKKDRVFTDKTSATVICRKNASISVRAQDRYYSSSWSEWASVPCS
# methodNotes: SPR (BIAcore)
assayEndpoint: log10(koff) (log10 of the value in s⁻¹)
Answers are given as log10 of koff in s⁻¹.

Consider the worked cases shown below.
M2 C5 (antibody, V domains shown) VH: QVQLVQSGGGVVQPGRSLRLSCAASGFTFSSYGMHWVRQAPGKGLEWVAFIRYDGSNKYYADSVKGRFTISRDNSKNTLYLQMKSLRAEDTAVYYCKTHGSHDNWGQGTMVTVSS VL: SYVLTQPPSVSGTPGQRVTISCSGGRSNIGSNTVKWYQQLPGTAPKLLIYGNDQRPSGVPDRFSGSKSGTSASLAITGVQAEDEADYYCQSYDTALTGSRVFGTGTKVTVLG    -1.33
136-14 (antibody, V domains shown) VH: QVQLVQSGGGVVQPGRSLRLSCAASGFTFSSYGMHWVRQAPGKGLEWVAFIRYDGSNKYYADSVKGRFTISRDNSKNTLYLQMKSLRAEDTAVYYCTTHGSHDNWGQGTMVTVSS VL: SYVLTQPPSVSGTPGQRVTISCSGGRSNIGSNTVKWYQQLPGTAPKLLIYGNDQRPSGVPDRFSGSKSGTSASLAITGVQAEDEADYYCQTYDRGFTGSRVFGTGTKVTVL    -2.96
C2 (antibody, V domains shown) VH: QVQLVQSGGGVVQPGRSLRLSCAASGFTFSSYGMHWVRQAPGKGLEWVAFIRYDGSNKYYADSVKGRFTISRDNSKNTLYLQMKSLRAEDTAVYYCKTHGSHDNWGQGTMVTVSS VL: SYVLTQPPSVSGTPGQRVTISCSGGRSNIGSNTVKWYQQLPGTAPKLLIYGNDQRPSGVPDRFSGSKSGTSASLAITGVQAEDEADYYCQSYDRGLNPSATFGTGTKVTVL    -2.65
73-C2 (antibody, V domains shown) VH: QVQLVQSGGGVVQPGRSLRLSCAASGFTFSSYGMHWVRQAPGKGLEWVAFIRYDGSNKYYADSVKGRFTISRDNSKNTLYLQMKSLRAEDTAVYYCTTSGSYDYWGQGTMVTVSS VL: SYVLTQPPSVSGTPGQRVTISCSGGRSNIGSNTVKWYQQLPGTAPKLLIYGNDQRPSGVPDRFSGSKSGTSASLAITGVQAEDEADYYCQSYDSEFTGSRVFGTGTKVTVLG    -2.42

--- query ---
The measured log10(koff) associated with 73-F6 (antibody, V domains shown) VH: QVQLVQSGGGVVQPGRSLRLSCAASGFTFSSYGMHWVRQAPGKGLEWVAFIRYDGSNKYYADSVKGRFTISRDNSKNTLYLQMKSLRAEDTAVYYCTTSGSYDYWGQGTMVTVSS VL: SYVLTQPPSVSGTPGQRVTISCSGGRSNIGSNTVKWYQQLPGTAPKLLIYGNDQRPSGVPDRFSGSKSGTSASLAITGVQAEDEADYYCHSYDMGFTGSRVFGTGTKVTVLG reads -2.23
